Measured CC50, listed per entry.
Test system: BSC cells, SV40 CPE inhibition and viability
Assay: antiviral efficacy and BSC cell toxicity – BSC cells, set 2, SV40 T antigen inhibitor project (AID 2775)
Active and inactive are the calls of the source. How the calls were made is not given here.
Observable: CC50

{"columns": ["Smiles record", "Observable", "Endpoint value"],
 "data": [
  ["O=C(Cn1sc2ccccc2c1=O)Nc1ccccc1", "CC50", "61 µM (inactive)"],
  ["Cc1ccc(NC(=O)Cn2sc3ccccc3c2=O)cc1", "CC50", "57 µM (inactive)"],
  ["COc1cccc(NC(=O)Cn2sc3ccccc3c2=O)c1", "CC50", "57 µM (inactive)"],
  ["O=C(Cn1sc2ccccc2c1=O)Nc1ccc(F)cc1", "CC50", "59 µM (inactive)"],
  ["COc1ccc(NC(=O)Cn2sc3ccccc3c2=O)cc1", "CC50", "73 µM (inactive)"],
  ["O=C(Cn1sc2ccccc2c1=O)NCc1ccccc1", "CC50", "58 µM (inactive)"]
]}

Provenance of the data: PubChem BioAssay AID2775
